Test system: U2OS
Assay: Multiplex assay against U2OS
Assay type: toxicity, cell-based
Settings: human, 48 h, 10 µM, compound concentration 10 uM, replicate 1
readout-type: Population Membrane Permeable-Phenotype (%)
Entry rule: numbers only, all in %.

Some entries whose results are on file:
Look up Population Membrane Permeable-Phenotype (%): O=C1NC(=O)C(c2cnc3ccccn23)=C1c1cn2c3c(cc(F)cc13)CN(C(=O)N1CCCCC1)CC2 [LY-2090314]
68

Moving on to the next molecule: CN1C2CCC1CC(OC(c1ccc(F)cc1)c1ccc(F)cc1)C2.Cl (stereo not drawn)
1

Further cases:
Look up Population Membrane Permeable-Phenotype (%): Cc1cn(-c2cc(NC(=O)c3ccc(C)c(Nc4nccc(-c5cccnc5)n4)c3)cc(C(F)(F)F)c2)cn1 [NILOTINIB]
24

Moving on to the next molecule: CCOC(=O)c1c(C)[nH]c2ccc3c(c12)CN1CCc2cc(OC)ccc2C1O3 (stereo not drawn)
88

Moving on to the next molecule: CCN1CCN(Cc2ccc(Nc3ncc(F)c(-c4cc(F)c5nc(C)n(C(C)C)c5c4)n3)nc2)CC1.CS(=O)(=O)O
100

Moving on to the next molecule: Cc1cc(C)c(S(=O)(=O)N(Cc2ccc(-c3cccc(S(C)(=O)=O)c3)cc2)Cc2ccc(C(F)(F)F)o2)c(C)c1
24

Moving on to the next molecule: CNc1cc(Oc2cc(C(=O)Nc3cc(N4CCN(C)CC4)cc(C(F)(F)F)c3)ccc2C)ncn1
100

Moving on to the next molecule: CCOc1cc(C(=O)N2CCC(N3CCN(C)CC3)CC2)ccc1Nc1ncc2c(n1)N(C1CCCC1)c1ccccc1C(=O)N2C
100

----------
Test system: Fibroblast
Assay: Multiplex assay against human fibroblast
Type: toxicity, cell-based
Conditions: 48 h, 1 µM, compound concentration 1 uM, replicate 2
readout-type: Population Membrane Permeable-Phenotype (%)

Some entries whose results are on file:
Look up Population Membrane Permeable-Phenotype (%): CCOc1cc2ncc(C#N)c(Nc3ccc(OCc4ccccn4)c(Cl)c3)c2cc1NC(=O)/C=C/CN(C)C [NERATINIB]
9%

Moving on to the next compound: CCN1CCN(Cc2ccc(Nc3ncc(F)c(-c4cc(F)c5nc(C)n(C(C)C)c5c4)n3)nc2)CC1.CS(=O)(=O)O
10%

Moving on to the next compound: O=C(Nc1ccc(Cl)cc1)Nc1cccc(-c2cccc(N3CCCC3)n2)c1
22%

Moving on to the next compound: CN(C)C(=O)C(CCN1CCC(O)(c2ccc(Cl)cc2)CC1)(c1ccccc1)c1ccccc1.Cl [LOPERAMIDE HYDROCHLORIDE]
12%

Moving on to the next compound: CCCn1c(=O)c2[nH]c(-c3cnn(Cc4cccc(C(F)(F)F)c4)c3)nc2n(CC)c1=O [GS 6201]
13%

Moving on to the next compound: COc1cc(N2CCN(C)CC2)ccc1Nc1ncc2c(n1)N(C)c1ccccc1C(=O)N2C
10%

Moving on to the next compound: Cl.O=c1c2cccn2c2ccccc2n1CCCN1CCC(c2ccc(Cl)cc2)CC1
5%

Moving on to the next compound: CCc1cccc(CC)c1NC(=O)c1nn(C)c2c1CCc1cnc(Nc3ccc(C(=O)NC4CCN(C)CC4)cc3OC(F)(F)F)nc1-2
10%

Further cases:
Look up Population Membrane Permeable-Phenotype (%): O=C1N/C(=N/c2ccccc2F)S/C1=C\c1ccc(C(=O)O)cc1
18%

Moving on to the next compound: O=C(Nc1ccc(-n2nc(-c3cccnc3)cc2C(F)(F)F)cn1)c1ccc(-c2ccccc2)c(F)c1 [BI 2049]
17%

Moving on to the next compound: Cc1cc(C)c(S(=O)(=O)N(Cc2ccc(-c3cccc(S(C)(=O)=O)c3)cc2)Cc2ccc(C(F)(F)F)o2)c(C)c1
18%

Moving on to the next compound: CCOc1cc(C(=O)N2CCC(N3CCN(C)CC3)CC2)ccc1Nc1ncc2c(n1)N(C1CCCC1)c1ccccc1C(=O)N2C
14%

Moving on to the next compound: Cc1ccc(C(=O)Nc2cccc(C(F)(F)F)c2)cc1Nc1nc(-c2cccnc2)nc2c1cnn2C
12%

Moving on to the next compound: CCOC(=O)c1c(C)[nH]c2ccc3c(c12)CN1CCc2cc(OC)ccc2C1O3 (stereo unspecified)
6%

Moving on to the next compound: Cl.Oc1ccc2c3c1O[C@H]1c4[nH]c5c(c4C[C@@]4(O)[C@@H](C2)N(CC2CC2)CC[C@]314)C[C@@]1(O)[C@H]2Cc3ccc(O)c4c3[C@@]1(CCN2CC1CC1)[C@H]5O4
18%

Moving on to the next compound: CCn1c(=O)c(-c2ccc(-c3cncs3)cc2Cl)cc2cnc(Nc3ccc(N4CCN(C)CC4)cc3)nc21
5%

----------
# Population Apoptotic (%) values compiled below
Test system: Fibroblast
Assay: Multiplex assay against human fibroblast
Format: toxicity, cell-based
Conditions: 24 h, 10 µM, compound concentration 10 uM, replicate 1
Entry rule: numbers only, all in %.

For Fibroblast, provide Population Apoptotic (%) of S=C(NCCCc1c[nH]cn1)NCCCN(Cc1ccc(Cl)c(Cl)c1)c1ccc(Br)cn1 please.
53

Moving on to the next compound: CN(C)C(=O)C(CCN1CCC(O)(c2ccc(Cl)cc2)CC1)(c1ccccc1)c1ccccc1.Cl [LOPERAMIDE HYDROCHLORIDE]
82

Moving on to the next compound: CCCS(=O)(=O)Nc1ccc(F)c(C(=O)c2c[nH]c3ncc(Cl)cc23)c1F [PLX-4720]
70

--- query ---
For Fibroblast, provide Population Apoptotic (%) of CN1CCN(C(=O)C(C)(C)c2ccc(C(=O)Nc3cn4cc(-c5cc(C(C)(C)C)cc(C(C)(C)C)c5)ccc4n3)cc2)CC1 [T3-CLK-N] please.
82

----------
Tested on: U2OS
Experiment: Multiplex assay against U2OS
Format: toxicity, cell-based
Conditions: human, 24 h, 10 µM, compound concentration 10 uM, replicate 1
readout-type: Population Membrane Permeable-Phenotype (%)
Entry rule: numbers only, all in %.

Look up Population Membrane Permeable-Phenotype (%): O=C(Nc1ccc(Cl)cc1)Nc1cccc(-c2cccc(N3CCCC3)n2)c1
53

Moving on to the next compound: CN1C2CCC1CC(OC(c1ccc(F)cc1)c1ccc(F)cc1)C2.Cl (centres undefined)
0

Moving on to the next compound: CCOC(=O)c1c(C)[nH]c2ccc3c(c12)CN1CCc2cc(OC)ccc2C1O3 (centres undefined)
78

--- query ---
Look up Population Membrane Permeable-Phenotype (%): CCn1c(=O)c(-c2ccc(-c3cncs3)cc2Cl)cc2cnc(Nc3ccc(N4CCN(C)CC4)cc3)nc21
100

----------
Tested on: U2OS
Assay: Multiplex assay against U2OS
Type: toxicity, cell-based
Conditions: human, 48 h, 1 µM, compound concentration 1 uM, replicate 1
# Population Tubulin-Different-Phenotype (%) values compiled below
Entry rule: numbers only, all in %.

Some entries whose results are on file:
Look up Population Tubulin-Different-Phenotype (%): Cl.O=c1c2cccn2c2ccccc2n1CCCN1CCC(c2ccc(Cl)cc2)CC1
11

Moving on to the next compound: CN(C)C(=O)C(CCN1CCC(O)(c2ccc(Cl)cc2)CC1)(c1ccccc1)c1ccccc1.Cl [LOPERAMIDE HYDROCHLORIDE]
59

Moving on to the next compound: CCCn1c(=O)c2[nH]c(-c3cnn(Cc4cccc(C(F)(F)F)c4)c3)nc2n(CC)c1=O
7

Moving on to the next compound: O=C(Nc1ccc(-c2ccnc(Nc3ccc(N4CCOCC4)cc3)n2)cc1)[C@@H]1CCCN1
13

Moving on to the next compound: Cc1cc(C)c(S(=O)(=O)N(Cc2ccc(-c3cccc(S(C)(=O)=O)c3)cc2)Cc2ccc(C(F)(F)F)o2)c(C)c1
4

Moving on to the next compound: CNc1cc(Oc2cc(C(=O)Nc3cc(N4CCN(C)CC4)cc(C(F)(F)F)c3)ccc2C)ncn1
49

Further cases:
Look up Population Tubulin-Different-Phenotype (%): CCCS(=O)(=O)c1nc(NC2CC2)cc(-c2ccc3c(ccn3C3CC(C)(C)NC(C)(C)C3)c2)n1
14

Moving on to the next compound: CN1C2CCC1CC(OC(c1ccc(F)cc1)c1ccc(F)cc1)C2.Cl (stereo not drawn)
5

----------
Tested on: HEK-293T
Assay: Multiplex assay against HEK293T
Type: toxicity, cell-based
Settings: human, 12 h, 10 µM, compound concentration 10 uM, replicate 1
# Total Cell Count values compiled below
Form rule: numeric answer, no unit written next to it.

Look up Total Cell Count: O=C(Nc1ccc(-n2nc(-c3cccnc3)cc2C(F)(F)F)cn1)c1ccc(-c2ccccc2)c(F)c1 [BI 2049]
254

Moving on to the next compound: CN1C2CCC1CC(OC(c1ccc(F)cc1)c1ccc(F)cc1)C2.Cl (stereo not drawn)
280

Moving on to the next compound: CCOC(=O)c1c(C)[nH]c2ccc3c(c12)CN1CCc2cc(OC)ccc2C1O3 (stereo not drawn)
266

Moving on to the next compound: CCc1cccc(CC)c1NC(=O)c1nn(C)c2c1CCc1cnc(Nc3ccc(N4CCN(C)CC4)cc3OC)nc1-2
730

Moving on to the next compound: COc1cc(N2CCN(C)CC2)ccc1Nc1ncc2c(n1)N(C)c1ccccc1C(=O)N2C
172

Moving on to the next compound: CN1CCN(C(=O)C(C)(C)c2ccc(C(=O)Nc3cn4cc(-c5cc(C(C)(C)C)cc(C(C)(C)C)c5)ccc4n3)cc2)CC1 [T3-CLK-N]
631

Further cases:
Look up Total Cell Count: C=C1/C(=C\C=C2/CCC[C@]3(C)[C@@H]([C@H](C)/C=C/[C@H](C)C(C)C)CC[C@@H]23)C[C@@H](O)C[C@@H]1O [DOXERCALCIFEROL]
180

Moving on to the next compound: O=C1N/C(=N/c2ccccc2F)S/C1=C\c1ccc(C(=O)O)cc1
203

Taken from ChEMBL document CHEMBL4689842.
